Please respond with reported TGI for every item in the list.
tested on: K-562 leukemia; assay: NCI tumour cell line growth inhibition, 48 h

Observe how each entry below is paired with its result.
Input: Report TGI for CC(=O)Oc1ccc(C2COc3cc(OC(C)=O)c(OC(C)=O)cc3C2)cc1 (configuration not stated)
Output: 51.7 µM

Input: Report TGI for O=c1[nH]c(=O)n(C2OC3COC2C3O)cc1F (configuration not stated)
Output: > 100 µM

Input: Report TGI for Cc1ccc(N=Nc2c(C)c(C#N)c(=S)n(C3OC(CO)C(O)C(O)C3O)c2-c2ccccc2)cc1 (configuration not stated)
Output: 83.3 µM

Take each entry in turn and give its TGI.
1. COc1ccc(OC)c2c1C1CCC(=O)N1CN2C(C)=O (configuration not stated)
2. Nc1cc(N2CCCC2)nc(=O)n1Cc1ccccc1
3. CC(C)N(C)C(=O)C12C3C4C1C1C2C3C41C#N (configuration not stated)
4. Cc1c(-c2ccccc2)c(C#N)c2nnc(C(N)=O)c(N)n12
5. OCC1OC(n2cnc3c(/C=C(/O)c4ccccc4)ncnc32)C(O)C1O (configuration not stated)
6. CC(=O)O[C@@H]1C2C(=O)OC(=O)C2C2CCC[C@]23O[C@H]13 (some centres not stated)
7. O=[N+]([O-])c1ccc2c(c1)[O][Sn]([I])([I])[O]2

Output:
1. > 100 µM
2. > 100 µM
3. > 100 µM
4. > 100 µM
5. > 100 µM
6. > 100 µM
7. > 100 µM

Take each entry in turn and give its TGI.
1. C[C@]12CC[C@H](O)CC1=CC[C@@H]1[C@@H]2CC[C@]2(C)/C(=N/OCCN3CCCC3)CC[C@@H]12
2. CCOC(=O)C(CS)NC(=O)CCCCCCCC(=O)NC(CS)C(=O)OCC (configuration not stated)
3. COc1ccc2c(c1)[n+]([O-])c(/C(C)=N/NC(=O)CC#N)c[n+]2[O-]
4. O=[N+]([O-])c1nccn1COCCBr
5. O=C(O)CSc1ncccc1[N+](=O)[O-]

Output:
1. 21.6 µM
2. > 100 µM
3. > 100 µM
4. > 100 µM
5. > 100 µM

* * *

test system: HCT-116 colon; experiment: NCI tumour cell line growth inhibition, 48 h; in the data active means GI50 below about 0.43 µM; inactive means the rest
Field 'call' accepts true (1) (active), false (0) (inactive)

The examples below pair each entry with its known result.
Input: Each compound tested received a call. Report the one for CCC(c1cccc(O)c1)C(CC)c1cccc(O)c1 (centres undefined) .
Output: false (0)

Input: Each compound tested received a call. Report the one for COc1cc(Cn2c(-c3nonc3N)nc3ccccc32)ccc1C .
Output: false (0)

Input: Each compound tested received a call. Report the one for COc1ccc(-c2cn[nH]c2-c2cc(OC)c3c(c2)OCCO3)cc1 .
Output: true (1)

More entries:
Input: Each compound tested received a call. Report the one for COc1cc2nc(-c3ccc(C(F)(F)F)cc3)cc(OCCCN3CCCCC3)c2cc1OC .
Output: false (0)

Input: Each compound tested received a call. Report the one for CCCCCCN(CCCCCC)CC(O)c1ccc2c3c(cccc13)CC2 (centres undefined) .
Output: false (0)

* * *

Please respond with reported TGI for every item in the list.
test system: SK-MEL-2 melanoma; assay: NCI tumour cell line growth inhibition, 48 h
Where a SMILES comes first, the peptide text is derived from it. The star is where a group is joined. Boc = CC(C)(C)OC(=O)*; OBn = c1ccc(CO*)cc1

Observe how each entry below is paired with its result.
Input: Report TGI for C/C(O)=C/c1nc2ccc([N+](=O)[O-])cc2nc1/C=C(/C)O
Output: 96.8 µM

Input: Report TGI for CC1(COS(=O)(=O)OCC2(C)COS(=O)(=O)OC2)COS(=O)(=O)OC1
Output: > 100 µM

Input: Report TGI for Cn1c(=O)c2c(ncn2CN2CCN(Cn3cnc4c3c(=O)n(C)c(=O)n4C)CC2)n(C)c1=O
Output: > 100 µM

Input: Report TGI for Cc1ccc(S(=O)(=O)c2c(O)c3ccccc3n(C)c2=O)cc1
Output: > 100 µM

Input: Report TGI for CN(Cc1cnc2nc(N)nc(N)c2n1)c1ccc(C(=O)NC(CCC(=O)NCC(P(=O)(O)O)P(=O)(O)O)C(=O)O)cc1 (stereo not drawn)
Output: > 100 µM

Input: Report TGI for Cc1c2ccc(N(C)c3ccnc(Nc4cccc(S(N)(=O)=O)c4)n3)cc2nn1C
Output: 16.7 µM

Take each entry in turn and give its TGI.
1. C=CC[C@@]1(C(=O)OC)[C@H](Sc2ccccc2)C1(C)C
2. O=c1[nH]c(Nc2cccc(Cl)c2)nc2nc[nH]c12
3. C[N+](C)(C)c1ncnc2c1ncn2C1CCCCO1 (stereo not drawn)
4. CCOc1cc(C2CC(c3ccc(NS(=O)(=O)c4cc([N+](=O)[O-])ccc4C)cc3)=NN2)ccc1O (stereo not drawn)
5. COc1ccc(/C=C2\N=C(c3ccccc3)N(C3Nc4cc5c(cc4S3)NC(N3C(=O)/C(=C/c4ccc(OC)cc4)N=C3c3ccccc3)S5)C2=O)cc1 (stereo not drawn)
6. Cc1c(NC2(C)C(=O)N(/N=C/c3ccccc3)N=C2c2ccccc2)n[nH]c1-c1ccccc1 (stereo not drawn)

Output:
64.1 µM
> 100 µM
> 100 µM
49.9 µM
97.5 µM
> 100 µM

Take each entry in turn and give its TGI.
1. CC(C)(C)OC(=O)NC(Cc1ccccc1)C(=O)NC(Cc1ccccc1)C(=O)NCC(=O)OCc1ccccc1 (stereo not drawn) (Boc-Phe-Phe-Gly-OBn; configuration not given here)
2. O=C(O)CSc1ncccc1[N+](=O)[O-]

Output:
1: > 100 µM; 2: > 100 µM

Take each entry in turn and give its TGI.
1. COc1c2cc(C(C)(C)C)cc1Cc1cccc(c1O)Cc1cc(C(C)(C)C)cc(c1OC)Cc1cccc(c1O)Cc1cc(C(C)(C)C)cc(c1OC)Cc1cccc(c1O)C2
2. CNC(=S)N/N=C/c1ccc([N+](=O)[O-])s1

Output:
> 100 µM
> 10 µM

Take each entry in turn and give its TGI.
1. C[C-](O)O.O/C(=C\[C-](O)c1ccccc1)c1ccccc1.O/C(=C\[C-](O)c1ccccc1)c1ccccc1.[Nd+3] (stereo not drawn)
2. COc1ccc(C(=O)N2c3ccccc3Sc3ccccc32)c(C(F)(F)F)c1

Output:
1: 34.4 µM; 2: > 100 µM

* * *

tested on: U251 CNS; assay: NCI tumour cell line growth inhibition, 48 h
Please respond with reported TGI for every item in the list.

Observe how each entry below is paired with its result.
Input: Report TGI for CN(C)CCNc1ncnc2nc(-c3ccc4ccccc4c3)[nH]c12
Output: > 100 µM

Input: Report TGI for COc1ccc(C2C(C#N)=C(S)N(C3OC(CO)C(O)C(O)C3O)C(c3ccccc3)=C2C(C)=O)cc1 (stereo not drawn)
Output: > 100 µM

Input: Report TGI for COc1ccc(C2CC(n3nnnc3-c3ccccc3)=NN2)cc1 (stereo not drawn)
Output: 35.9 µM

Input: Report TGI for CCOC(=O)C(CS)NC(=O)CCCCCCCC(=O)NC(CS)C(=O)OCC (stereo not drawn)
Output: > 100 µM

Input: Report TGI for COc1ccc(/C=C2\N=C(c3ccccc3)N(C3Nc4cc5c(cc4S3)NC(N3C(=O)/C(=C/c4ccc(OC)cc4)N=C3c3ccccc3)S5)C2=O)cc1 (stereo not drawn)
Output: 63.7 µM

Input: Report TGI for CCOC(=O)c1cc(/C=C/C(C)=C/C(=O)OC)n(C)c1C
Output: > 100 µM

Input: Report TGI for Nc1ccc2[nH]c(C(=O)N3CC(CCl)c4c3cc(N)c3ccccc43)cc2c1 (stereo not drawn)
Output: 0.147 µM

Input: Report TGI for COc1cccc(-c2cc(=O)c3ccc(C)nc3[nH]2)c1
Output: > 100 µM

Take each entry in turn and give its TGI.
1. O=c1[nH]c(=O)n(C2OC3COC2C3O)cc1F (stereo not drawn)
2. CN=C1SC(=Nc2ccc(N(C)C)cc2)N1C

Output:
1. > 100 µM
2. > 100 µM

Take each entry in turn and give its TGI.
1. O=c1[nH]c(Nc2cccc(Cl)c2)nc2nc[nH]c12
2. O=c1[nH]nc(Cc2ccccc2)n1-n1cnnc1
3. CC(=O)OC1[C@H]2c3cc4c(cc3CN3CCC(=C[C@@H]1O)C23)OCO4 (stereo partly drawn)
4. C/C(=N\NC(N)=S)c1nc2ccc(Cl)cc2[nH]1
5. O=[N+]([O-])c1ccc2c(c1)[O][Sn][O]2
6. COc1cc(/C=C2/N=C(c3ccccc3)N(C3=NNC4(C(=O)N3)c3ccccc3-c3ccccc34)NC2=O)ccc1O
7. Cc1cc(=O)oc2cc(O)ccc12

Output:
> 100 µM
> 100 µM
> 100 µM
13 µM
> 150 mg/L
44.8 mg/L
> 100 µM

Take each entry in turn and give its TGI.
1. Cc1cc2c(=O)c3ccccc3[nH]c2c(C(=O)O)c1C
2. c1ccc2c(c1)nc1n2CCSC1
3. CC(C)N(C)C(=O)C12C3C4C1C1C2C3C41C#N (stereo not drawn)
4. CC(C)(C)OC[C@H](O)CC#N
5. CC(=O)Oc1ccc(C2COc3cc(OC(C)=O)c(OC(C)=O)cc3C2)cc1 (stereo not drawn)
6. CC(=O)OCC=C(CCl)CCC(Br)C(C)(C)Br (mixture of isomers)

Output:
1: > 100 µM; 2: > 100 µM; 3: > 100 µM; 4: > 100 µM; 5: 60.4 µM; 6: > 10 µM
